Tested on: SN12C renal
Assay: NCI tumour cell line growth inhibition, 48 h
ATTRIBUTE MEASURED: TGI

COc1ccc(C(=O)C[C@]2(O)C(=O)Nc3c(Cl)ccc(Cl)c32)cc1 | > 100 µM
COc1ccc(C=Nc2ccc(-c3nc4ccccc4[nH]3)cc2)cc1OC | > 100 µM
CC(C)(C)CC(C)(C)c1ccc(OCCOCC[N+](C)(C)Cc2ccccc2)cc1 | 12.7 µM
Cc1n(Cc2ccc3ccccc3c2)c(Cl)c(Cl)[n+]1Cc1ccc2ccccc2c1 | 3.03 µM
N#CCCC1(CCC#N)CCCCCCC(CCC#N)(CCC#N)C(O)C1O (centres undefined) | > 100 µM
Cc1ccccc1NC(=O)C(=O)CC(=O)c1ccc([N+](=O)[O-])cc1 | > 100 µM
O=S(=O)(O)C1CCC(O)C2[N-]CCCC21.O=S(=O)(O)C1CCC(O)C2[N-]CCCC21.[Zn+2] (centres undefined) | > 100 µM
COC(=O)CC(NC(=O)OCc1ccccc1)C(C(=O)OCc1ccccc1)C1(C)OCCO1 (centres undefined) | > 100 µM
CCN(CC)CCOc1ccc(/C=C2\CC3C4CC=C5C[C@@H](OC(C)=O)CC[C@]5(C)C4CC[C@]3(C)C2=O)cc1OC (some centres undefined) | 30.1 µM

---

Collected TGI values appear next to each entry.
System: SN12C renal
Assay: NCI tumour cell line growth inhibition, 48 h
ATTRIBUTE MEASURED: TGI

COc1nc2c(c(O)c(C)c(=O)n2OC2OC(COC(C)=O)C(OC(C)=O)C(OC(C)=O)C2OC(C)=O)c(=O)n1C (stereo unspecified) | > 100 µM
CC(C)C1CC(CO)(CNc2cc(Cl)nc(N)n2)C1 (stereo unspecified) | > 100 µM
CC(C)CCCC(C)[C@H]1CC[C@H]2N=C(Nc3ccccc3)CCC[C@]12C (stereo partly specified) | 3.48 µM
CCOC(=O)/C(C#N)=C/N(CC)/N=C/c1ccccc1 | > 100 µM
CC12CC(C/C1=N/O)C(C)(C)C2 (stereo unspecified) | > 100 µM
Cn1cnc([N+](=O)[O-])c1Sc1nc(N)nc2nc[nH]c12 | > 100 µM

---

Collected TGI values appear next to each entry.
Test system: HL-60(TB) leukemia
Assay: NCI tumour cell line growth inhibition, 48 h
ATTRIBUTE MEASURED: TGI

Cc1cc2occ(-c3ccc(Cl)cc3)c2c(=O)o1 | > 100 µM
COC(=O)[C@H](Cc1ccccc1)NC(=O)c1csc([C@@H](C[C@H](C(C)C)N(C)C(=O)[C@@H](NC(=O)[C@H]2CCCN2C)C2CC2)OC(C)=O)n1 | 1.9 µM
CC1(C)CC(=O)c2c(oc3cc(O)c(O)cc23)C1 | 48.5 µM
CCOCNc1ccc(N2C(=O)/C(=C/c3ccc(N(CC)CC)cc3)N=C2c2ccccc2)cc1 | > 100 µM
C/C(=C\Cc1cc(O)ccc1O)CCc1c(C)cc(O)c(C=O)c1C | > 100 µM
COC(=O)C1(F)C(=O)NC(=O)NC1OC (stereo unspecified) | > 100 µM

---

System: COLO 205 colon
Assay: NCI tumour cell line growth inhibition, 48 h
Collected log10(TGI) values appear next to each entry.
ATTRIBUTE MEASURED: log10(TGI) (log10 of the value in µM)

O=C(Cc1ccc(/C=C/C(=O)c2ncc[nH]2)cc1)Nc1ccc(C(F)(F)F)cc1 | 1.07
Fc1c[c-]c(-c2ccccn2)c(F)c1.[CH3-].[Pt+2].c1ccc(P(C[PH+](c2ccccc2)c2ccccc2)c2ccccc2)cc1 | 0.32
CN(C)C(=O)SC1=C(c2c(Cl)cccc2Cl)C(=O)c2ccccc21 | 0.65
O=c1oc2ccc(F)cc2c(=O)n1-c1ccc(Br)cc1F | 1.19
CCN(CC)CCN(C)CCc1ccc(Br)cc1 | 1.60
O=C(O)C1C(C(=O)O)C2(Cl)C(Cl)=C(Cl)C1(Cl)C2(Cl)Cl.[Cd] (stereo not given) | 1.59
CC1=C2NCN(C)N=C2C(C#N)(C#N)C1(C#N)C#N | 1.30
COc1ccc(C(=O)C[C@]2(O)C(=O)Nc3c(Cl)ccc(Cl)c32)cc1 | 0.99
